# Test system: Nitrobacter spp.
# assay.text: Nitrite nitrogen in ammonium amended soil incubated at 25° C.
# reported.conditions: 0.25 ppm; week 1; soil 25° C.; 200 ppm N
Where a name gives a salt, the structure may show the parent alone.
property.measured: Concentration of nitrite nitrogen (ppm)
I only need the number, in ppm, no unit after it.

Consider the compound CC[C@@H](C(=O)[C@@H](C)[C@@H](O)[C@H](C)CCc1ccc(C)c(O)c1C(=O)O)[C@H]1O[C@](CC)([C@H]2CC[C@](O)(CC)[C@H](C)O2)C[C@@H]1C [Lasalocid sodium salt, Lasalocid] . State its measured Concentration of nitrite nitrogen.
0

====

Field: Recovery of Ammonium Nitrogen. Provide a value for each of the compounds that follow.
# System: Nitrosomonas spp.
# assay.text: Nitrification of ammonium in soil incubated at 25° C. (ammonium recovery, nitrate accumulation)
# reported.conditions: 0.10 ppm; week 1; soil 25° C.; 200 ppm N
Where a name gives a salt, the structure may show the parent alone.
Mention the unit after the number when you answer.

Consider the compound CC[C@@]1([C@@H]2O[C@@H]([C@H]3O[C@@](O)(CO)[C@H](C)C[C@@H]3C)C[C@@H]2C)CC[C@H]([C@]2(C)CC[C@]3(C[C@H](O)[C@@H](C)[C@@H]([C@@H](C)[C@@H](OC)[C@H](C)C(=O)O)O3)O2)O1 [Monensin sodium salt, Monensin] . State its measured Recovery of Ammonium Nitrogen.
175 PPM

Consider the compound CC[C@@H](C(=O)[C@@H](C)[C@@H](O)[C@H](C)[C@@H]1O[C@@H]([C@@H](CC)C(=O)O)CC[C@@H]1C)[C@H]1O[C@]2(C=C[C@@H](O)[C@]3(CC[C@@](C)([C@H]4CC[C@](O)(CC)[C@H](C)O4)O3)O2)[C@H](C)C[C@@H]1C [Salinomycin monosodium salt, Salinomycin] . State its measured Recovery of Ammonium Nitrogen.
171 PPM

Consider the compound CO[C@@H]1[C@@H](OC)[C@H](C)[C@@](O)(CC(=O)O)O[C@H]1[C@H](C)[C@H]1O[C@@]2(CC[C@@](C)([C@H]3CC[C@@](C)([C@@H]4O[C@@H]([C@H]5O[C@](C)(O)[C@H](C)C[C@@H]5C)C[C@@H]4O[C@@H]4C[C@H](OC)[C@@H](OC)[C@H](C)O4)O3)O2)C[C@H](O)[C@H]1C [Maduramicin monoammonium salt, Maduramicin] . State its measured Recovery of Ammonium Nitrogen.
168 PPM

Consider the compound CC[C@@H](C(=O)[C@@H](C)[C@@H](O)[C@H](C)CCc1ccc(C)c(O)c1C(=O)O)[C@H]1O[C@](CC)([C@H]2CC[C@](O)(CC)[C@H](C)O2)C[C@@H]1C [Lasalocid sodium salt, Lasalocid] . State its measured Recovery of Ammonium Nitrogen.
177 PPM

====

Field: Concentration of nitrate nitrogen. Provide a value for each of the compounds that follow.
# Test system: Nitrosomonas spp.
# assay.text: Nitrification of ammonium in soil incubated at 25° C. (ammonium recovery, nitrate accumulation)
# reported.conditions: 0.25 ppm; week 2; soil 25° C.; 200 ppm N
Where a name gives a salt, the structure may show the parent alone.
I only need the number, in PPM, no unit after it.

Consider the compound CC[C@@H](C(=O)[C@@H](C)[C@@H](O)[C@H](C)CCc1ccc(C)c(O)c1C(=O)O)[C@H]1O[C@](CC)([C@H]2CC[C@](O)(CC)[C@H](C)O2)C[C@@H]1C [Lasalocid sodium salt, Lasalocid] . State its measured Concentration of nitrate nitrogen.
18

Consider the compound CC[C@@]1([C@@H]2O[C@@H]([C@H]3O[C@@](O)(CO)[C@H](C)C[C@@H]3C)C[C@@H]2C)CC[C@H]([C@]2(C)CC[C@]3(C[C@H](O)[C@@H](C)[C@@H]([C@@H](C)[C@@H](OC)[C@H](C)C(=O)O)O3)O2)O1 [Monensin sodium salt, Monensin] . State its measured Concentration of nitrate nitrogen.
21

Consider the compound CO[C@@H]1[C@@H](OC)[C@H](C)[C@@](O)(CC(=O)O)O[C@H]1[C@H](C)[C@H]1O[C@@]2(CC[C@@](C)([C@H]3CC[C@@](C)([C@@H]4O[C@@H]([C@H]5O[C@](C)(O)[C@H](C)C[C@@H]5C)C[C@@H]4O[C@@H]4C[C@H](OC)[C@@H](OC)[C@H](C)O4)O3)O2)C[C@H](O)[C@H]1C [Maduramicin monoammonium salt, Maduramicin] . State its measured Concentration of nitrate nitrogen.
19

Consider the compound CC[C@@H](C(=O)[C@@H](C)[C@@H](O)[C@H](C)[C@@H]1O[C@@H]([C@@H](CC)C(=O)O)CC[C@@H]1C)[C@H]1O[C@]2(C=C[C@@H](O)[C@]3(CC[C@@](C)([C@H]4CC[C@](O)(CC)[C@H](C)O4)O3)O2)[C@H](C)C[C@@H]1C [Salinomycin monosodium salt, Salinomycin] . State its measured Concentration of nitrate nitrogen.
22

====

# Test system: Nitrosomonas spp.
# assay.text: Nitrification of ammonium in soil incubated at 25° C. (ammonium recovery, nitrate accumulation)
# reported.conditions: 0.10 ppm; week 7; soil 25° C.; 200 ppm N
Counter-ions that a name gives are not always drawn.
property.measured: Concentration of nitrate nitrogen (PPM)
I only need the number, in PPM, no unit after it.

Consider the molecule CC[C@@H](C(=O)[C@@H](C)[C@@H](O)[C@H](C)[C@@H]1O[C@@H]([C@@H](CC)C(=O)O)CC[C@@H]1C)[C@H]1O[C@]2(C=C[C@@H](O)[C@]3(CC[C@@](C)([C@H]4CC[C@](O)(CC)[C@H](C)O4)O3)O2)[C@H](C)C[C@@H]1C [Salinomycin monosodium salt, Salinomycin] . State its measured Concentration of nitrate nitrogen.
27

Consider the molecule CO[C@@H]1[C@@H](OC)[C@H](C)[C@@](O)(CC(=O)O)O[C@H]1[C@H](C)[C@H]1O[C@@]2(CC[C@@](C)([C@H]3CC[C@@](C)([C@@H]4O[C@@H]([C@H]5O[C@](C)(O)[C@H](C)C[C@@H]5C)C[C@@H]4O[C@@H]4C[C@H](OC)[C@@H](OC)[C@H](C)O4)O3)O2)C[C@H](O)[C@H]1C [Maduramicin monoammonium salt, Maduramicin] . State its measured Concentration of nitrate nitrogen.
75

Consider the molecule CC[C@@H](C(=O)[C@@H](C)[C@@H](O)[C@H](C)CCc1ccc(C)c(O)c1C(=O)O)[C@H]1O[C@](CC)([C@H]2CC[C@](O)(CC)[C@H](C)O2)C[C@@H]1C [Lasalocid sodium salt, Lasalocid] . State its measured Concentration of nitrate nitrogen.
197

Consider the molecule CC[C@@]1([C@@H]2O[C@@H]([C@H]3O[C@@](O)(CO)[C@H](C)C[C@@H]3C)C[C@@H]2C)CC[C@H]([C@]2(C)CC[C@]3(C[C@H](O)[C@@H](C)[C@@H]([C@@H](C)[C@@H](OC)[C@H](C)C(=O)O)O3)O2)O1 [Monensin sodium salt, Monensin] . State its measured Concentration of nitrate nitrogen.
199

====

# System: Nitrobacter spp.
# assay.text: Nitrite nitrogen in ammonium amended soil incubated at 25° C.
# reported.conditions: 0.10 ppm; week 2; soil 25° C.; 200 ppm N
Structures can show the parent of a compound that is named as a salt.
Field: Concentration of nitrite nitrogen. Provide a value for each of the compounds that follow.
I only need the number, in ppm, no unit after it.

Consider the compound CC[C@@H](C(=O)[C@@H](C)[C@@H](O)[C@H](C)CCc1ccc(C)c(O)c1C(=O)O)[C@H]1O[C@](CC)([C@H]2CC[C@](O)(CC)[C@H](C)O2)C[C@@H]1C [Lasalocid sodium salt, Lasalocid] . State its measured Concentration of nitrite nitrogen.
1

Consider the compound CC[C@@]1([C@@H]2O[C@@H]([C@H]3O[C@@](O)(CO)[C@H](C)C[C@@H]3C)C[C@@H]2C)CC[C@H]([C@]2(C)CC[C@]3(C[C@H](O)[C@@H](C)[C@@H]([C@@H](C)[C@@H](OC)[C@H](C)C(=O)O)O3)O2)O1 [Monensin sodium salt, Monensin] . State its measured Concentration of nitrite nitrogen.
4

Consider the compound CC[C@@H](C(=O)[C@@H](C)[C@@H](O)[C@H](C)[C@@H]1O[C@@H]([C@@H](CC)C(=O)O)CC[C@@H]1C)[C@H]1O[C@]2(C=C[C@@H](O)[C@]3(CC[C@@](C)([C@H]4CC[C@](O)(CC)[C@H](C)O4)O3)O2)[C@H](C)C[C@@H]1C [Salinomycin monosodium salt, Salinomycin] . State its measured Concentration of nitrite nitrogen.
7

Consider the compound CO[C@@H]1[C@@H](OC)[C@H](C)[C@@](O)(CC(=O)O)O[C@H]1[C@H](C)[C@H]1O[C@@]2(CC[C@@](C)([C@H]3CC[C@@](C)([C@@H]4O[C@@H]([C@H]5O[C@](C)(O)[C@H](C)C[C@@H]5C)C[C@@H]4O[C@@H]4C[C@H](OC)[C@@H](OC)[C@H](C)O4)O3)O2)C[C@H](O)[C@H]1C [Maduramicin monoammonium salt, Maduramicin] . State its measured Concentration of nitrite nitrogen.
2
